Data provenance: ChEMBL document CHEMBL1146163

# experimental_system: Peroxisome proliferator-activated receptor alpha (Homo sapiens)
# assay_explanation: Displacement of tritium labeled ligand from human PPARalpha by SPA assay
property_measured: pIC50
Answers are plain numbers, as −log10 of the molar value.

Past entries and their recorded results:
chemical_smiles=C#CCOC(=O)N1CCc2c(OCCc3nc(-c4ccccc4)oc3C)ccc(CCC(=O)O)c2C1 property_measured=pIC50 recorded_measurement=5.08
chemical_smiles=Cc1oc(-c2ccccc2)nc1CCOc1ccc(CCC(=O)O)c2c1CCN(C(=O)OCC(C)C)C2 property_measured=pIC50 recorded_measurement=5.47

Pending molecule:
Record summary for CCCOC(=O)N1CCc2c(OCCc3nc(-c4ccccc4)oc3C)ccc(CCC(=O)O)c2C1 : reported pIC50 = 5.33

---

# experimental_system: Peroxisome proliferator-activated receptor alpha (Homo sapiens, UniProt Q07869)
# Sequence (Q07869 whole entry): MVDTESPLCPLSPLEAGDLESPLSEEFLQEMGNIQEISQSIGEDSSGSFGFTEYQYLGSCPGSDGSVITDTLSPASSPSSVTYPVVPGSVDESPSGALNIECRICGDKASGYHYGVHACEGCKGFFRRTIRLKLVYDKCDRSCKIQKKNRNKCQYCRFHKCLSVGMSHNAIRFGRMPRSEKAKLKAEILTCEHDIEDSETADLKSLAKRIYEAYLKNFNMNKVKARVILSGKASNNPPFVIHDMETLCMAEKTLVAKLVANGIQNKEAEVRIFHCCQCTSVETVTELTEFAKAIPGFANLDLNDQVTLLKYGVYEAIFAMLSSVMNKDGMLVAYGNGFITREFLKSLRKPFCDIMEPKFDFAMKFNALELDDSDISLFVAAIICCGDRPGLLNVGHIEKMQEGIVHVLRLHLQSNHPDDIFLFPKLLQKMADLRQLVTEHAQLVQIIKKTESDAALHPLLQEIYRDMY
# assay_explanation: Displacement of tritium labeled ligand from human PPARalpha by SPA assay
Consider the following molecules; for each one, report its pEC50.
One number for each entry, as −log10 of the molar value.

Past entries and their recorded results:
chemical_smiles=CCCOC(=O)N1CCc2c(OCCc3nc(-c4ccccc4)oc3C)ccc(CCC(=O)O)c2C1 experimental_system="Peroxisome proliferator-activated receptor alpha (Homo sapiens, UniProt Q07869)" recorded_measurement=6.25
chemical_smiles=Cc1oc(-c2ccccc2)nc1CCOc1ccc(CCC(=O)O)c2c1CCN(C(=O)OCC(C)C)C2 experimental_system="Peroxisome proliferator-activated receptor alpha (Homo sapiens, UniProt Q07869)" recorded_measurement=5.77
chemical_smiles=C#CCOC(=O)N1CCc2c(OCCc3nc(-c4ccccc4)oc3C)ccc(CCC(=O)O)c2C1 experimental_system="Peroxisome proliferator-activated receptor alpha (Homo sapiens, UniProt Q07869)" recorded_measurement=5.56

Pending molecule:
Kindly note: Peroxisome proliferator-activated receptor alpha (Homo sapiens, UniProt Q07869), CCCOC(=O)N1CCc2c(OCCc3nc(-c4ccc(-c5ccccc5)cc4)oc3C)ccc(CCC(=O)O)c2C1 , pEC50 value reported: 5.62

---

# assay_explanation: Tmax in F344 rat at 10 mg/kg, po
# Assay type: ADME, organism-based
# Parameters: dose 10 mg/kg, route oral
# measurement_context: in vivo
property_measured: Tmax (h)
Numbers only, in h.

Record summary for CCCOC(=O)N1CCc2c(OCCc3nc(-c4ccc(-c5ccccc5)cc4)oc3C)ccc(CCC(=O)[O-])c2C1.[Na+] : reported Tmax = 1
